Target: PDE3
Details: read-out: Ki PDE3-inhibition; 20°C; Cheng-Prusoff from IC50
pKi: −log10 of the molar value.
value-kind: pKi

>>> df
                                   molecule  measured_on  numeric_readout
0  CCCc1nc(C)c2c(=O)[nH]c(-c3cc(S(=O)(=O)N4CCN(CC)CC4)ccc3OCC)nn12 [Vardenafil]         PDE3             5.47

====

Target: PDE3
Details: read-out: Ki PDE3-inhibition; 28°C; Cheng-Prusoff from IC50
Description: The assays were performed in triplicates at three different days. […] The reaction was started by adding either a solution containing 0.016 units/μg protein of PDE3 (Abcam, Cambridge United Kingdom), or 0.022 units/μg protein of PDE5 (Sigma-Aldrich, St. Louis, MO, United States), to the Eppendorf tubes. Parallels for cAMP-metabolism included PDE3 only and parallels for cGMP-metabolism included PDE5 only. […] Samples were analyzed for cGMP/GMP and cAMP/AMP content, using MS.
value-kind: Ki (µM)

                                        smi  numeric_readout
0  CCCc1nc(C)c2c(=O)[nH]c(-c3cc(S(=O)(=O)N4CCN(CC)CC4)ccc3OCC)nn12              1.5

====

Molecular target: cAMP-efflux (ABCC4) (Homo sapiens, UniProt O15439)
Construct: from tissue; host or cells: human erythrocyte membranes (inside-out vesicles), pooled donors
Test: biochemical
Type: biochemical
Conditions: 28°C; 20 μM [3H]-cAMP, 60 min, IOV
value-kind: IC50 (µM)

In [3]: df
Out[3]:
                                        smi                               measured_on  numeric_readout
0  CCCc1nc(C)c2c(=O)[nH]c(-c3cc(S(=O)(=O)N4CCN(CC)CC4)ccc3OCC)nn12  cAMP-efflux (ABCC4) (Homo sapiens, UniProt O15439)             9.63

====

Molecular target: cAMP-efflux (ABCC4) (Homo sapiens, UniProt O15439)
Construct: from tissue; host or cells: human erythrocyte membranes (inside-out vesicles), pooled donors
Sequence (O15439 1-1325): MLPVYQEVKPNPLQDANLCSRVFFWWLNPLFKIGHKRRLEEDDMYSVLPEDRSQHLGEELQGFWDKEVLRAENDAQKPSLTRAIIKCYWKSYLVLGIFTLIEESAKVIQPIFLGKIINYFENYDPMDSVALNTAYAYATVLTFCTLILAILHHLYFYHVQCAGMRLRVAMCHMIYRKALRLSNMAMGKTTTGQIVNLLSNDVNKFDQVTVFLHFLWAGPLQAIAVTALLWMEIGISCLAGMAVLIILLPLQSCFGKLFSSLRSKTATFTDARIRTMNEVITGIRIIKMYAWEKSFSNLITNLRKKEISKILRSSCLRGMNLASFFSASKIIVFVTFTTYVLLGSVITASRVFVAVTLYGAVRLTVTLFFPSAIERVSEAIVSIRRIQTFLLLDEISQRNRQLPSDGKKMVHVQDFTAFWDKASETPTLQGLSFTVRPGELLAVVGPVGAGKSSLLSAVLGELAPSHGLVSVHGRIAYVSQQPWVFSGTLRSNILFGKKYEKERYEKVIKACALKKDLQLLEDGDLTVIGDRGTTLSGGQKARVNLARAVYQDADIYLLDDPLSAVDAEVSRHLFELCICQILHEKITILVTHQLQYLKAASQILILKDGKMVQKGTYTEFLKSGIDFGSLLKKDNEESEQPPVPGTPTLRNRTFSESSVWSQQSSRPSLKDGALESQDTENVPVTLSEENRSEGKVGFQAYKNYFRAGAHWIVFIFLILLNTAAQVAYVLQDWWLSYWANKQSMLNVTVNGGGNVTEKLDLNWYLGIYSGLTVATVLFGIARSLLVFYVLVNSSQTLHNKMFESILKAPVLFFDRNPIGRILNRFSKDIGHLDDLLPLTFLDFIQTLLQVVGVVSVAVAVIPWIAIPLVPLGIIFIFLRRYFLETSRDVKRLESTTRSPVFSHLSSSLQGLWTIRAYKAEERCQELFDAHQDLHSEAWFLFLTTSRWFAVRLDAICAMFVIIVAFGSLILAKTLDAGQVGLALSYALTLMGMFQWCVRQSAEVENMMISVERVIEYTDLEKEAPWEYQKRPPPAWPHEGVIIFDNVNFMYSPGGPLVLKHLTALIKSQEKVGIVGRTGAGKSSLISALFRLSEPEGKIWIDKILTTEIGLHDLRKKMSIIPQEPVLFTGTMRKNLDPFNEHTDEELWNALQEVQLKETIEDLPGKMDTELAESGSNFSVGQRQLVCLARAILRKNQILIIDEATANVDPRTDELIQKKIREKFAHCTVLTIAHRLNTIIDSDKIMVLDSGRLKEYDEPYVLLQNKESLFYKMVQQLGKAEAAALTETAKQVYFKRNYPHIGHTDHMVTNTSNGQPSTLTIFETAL
Test: biochemical
Format: biochemical
Details: 37°C; Cheng-Prusoff from IC50
pKi: −log10 of the molar value.
value-kind: pKi

>>> df
                                   molecule  numeric_readout
0  CCCc1nc(C)c2c(=O)[nH]c(-c3cc(S(=O)(=O)N4CCN(CC)CC4)ccc3OCC)nn12 [Vardenafil]             5.45

====

Molecular target: PDE3
Conditions: read-out: Ki PDE3-inhibition; 37°C; Cheng-Prusoff from IC50
value-kind: Ki

>>> df
                                        smi  measured_on  result
0  CCCc1nc(C)c2c(=O)[nH]c(-c3cc(S(=O)(=O)N4CCN(CC)CC4)ccc3OCC)nn12         PDE3  757 nM

====

Biological target: cAMP-efflux (ABCC4) (Homo sapiens)
Construct: from tissue; host or cells: human erythrocyte membranes (inside-out vesicles), pooled donors
Assay: biochemical
Assay type: biochemical
Settings: 37°C; 20 μM [3H]-cAMP, 60 min, IOV
pIC50: −log10 of the molar value.
value-kind: pIC50

In [3]: df
Out[3]:
                                        smi  value_kind  numeric_readout
0  CCCc1nc(C)c2c(=O)[nH]c(-c3cc(S(=O)(=O)N4CCN(CC)CC4)ccc3OCC)nn12       pIC50             5.23

====

Biological target: cAMP-efflux (ABCC4) (Homo sapiens)
Construct: from tissue; host or cells: human erythrocyte membranes (inside-out vesicles), pooled donors
Assay: biochemical
Type: biochemical
Details: 34°C; 20 μM [3H]-cAMP, 60 min, IOV
pIC50: −log10 of the molar value.
value-kind: pIC50

In [3]: df
Out[3]:
                                        smi                         measured_on  numeric_readout
0  CCCc1nc(C)c2c(=O)[nH]c(-c3cc(S(=O)(=O)N4CCN(CC)CC4)ccc3OCC)nn12  cAMP-efflux (ABCC4) (Homo sapiens)             5.24

====

Target: cAMP-efflux (ABCC4) (Homo sapiens, UniProt O15439)
Construct: from tissue; host or cells: human erythrocyte membranes (inside-out vesicles), pooled donors
Assay: biochemical
Format: biochemical
Conditions: 34°C; Cheng-Prusoff from IC50
pKi: −log10 of the molar value.
value-kind: pKi

>>> df
                                        smi  value_kind  numeric_readout
0  CCCc1nc(C)c2c(=O)[nH]c(-c3cc(S(=O)(=O)N4CCN(CC)CC4)ccc3OCC)nn12         pKi             5.45

====

Biological target: cAMP-efflux (ABCC4) (Homo sapiens)
Construct: from tissue; host or cells: human erythrocyte membranes (inside-out vesicles), pooled donors
Sequence (O15439 1-1325): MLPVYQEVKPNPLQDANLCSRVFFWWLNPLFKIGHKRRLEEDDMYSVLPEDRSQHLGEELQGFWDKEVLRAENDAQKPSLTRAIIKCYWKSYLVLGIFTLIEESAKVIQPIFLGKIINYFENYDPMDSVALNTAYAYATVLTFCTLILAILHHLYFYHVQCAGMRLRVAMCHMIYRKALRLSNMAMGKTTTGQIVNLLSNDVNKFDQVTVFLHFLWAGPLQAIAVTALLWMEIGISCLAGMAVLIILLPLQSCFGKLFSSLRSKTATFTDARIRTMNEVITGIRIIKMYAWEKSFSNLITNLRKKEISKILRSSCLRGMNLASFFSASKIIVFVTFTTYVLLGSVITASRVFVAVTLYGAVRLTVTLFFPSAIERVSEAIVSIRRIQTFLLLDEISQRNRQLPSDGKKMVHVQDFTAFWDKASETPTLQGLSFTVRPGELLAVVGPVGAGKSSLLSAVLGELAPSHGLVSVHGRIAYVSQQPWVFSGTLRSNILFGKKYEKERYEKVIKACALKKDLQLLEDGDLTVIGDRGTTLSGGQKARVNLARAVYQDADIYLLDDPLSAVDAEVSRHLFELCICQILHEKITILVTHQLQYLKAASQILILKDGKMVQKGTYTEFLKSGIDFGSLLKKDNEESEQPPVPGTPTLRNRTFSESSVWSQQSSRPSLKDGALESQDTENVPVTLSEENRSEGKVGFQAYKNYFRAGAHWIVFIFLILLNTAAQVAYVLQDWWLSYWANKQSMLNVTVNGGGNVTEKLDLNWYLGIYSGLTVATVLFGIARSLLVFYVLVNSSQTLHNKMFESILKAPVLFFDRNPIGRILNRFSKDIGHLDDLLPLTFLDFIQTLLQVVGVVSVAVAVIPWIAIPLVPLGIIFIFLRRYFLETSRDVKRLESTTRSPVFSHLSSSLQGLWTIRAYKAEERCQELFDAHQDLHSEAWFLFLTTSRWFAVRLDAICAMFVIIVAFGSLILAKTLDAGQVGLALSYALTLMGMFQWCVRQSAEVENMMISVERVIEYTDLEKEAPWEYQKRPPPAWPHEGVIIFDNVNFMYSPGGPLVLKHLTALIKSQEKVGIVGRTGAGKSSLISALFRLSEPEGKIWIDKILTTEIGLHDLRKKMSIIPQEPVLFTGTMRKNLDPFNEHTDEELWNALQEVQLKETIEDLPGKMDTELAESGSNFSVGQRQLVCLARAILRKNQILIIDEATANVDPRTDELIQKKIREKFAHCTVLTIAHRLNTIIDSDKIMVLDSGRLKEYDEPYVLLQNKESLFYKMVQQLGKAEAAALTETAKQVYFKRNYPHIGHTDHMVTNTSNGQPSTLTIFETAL
Test: biochemical
Format: biochemical
Details: 32°C; 20 μM [3H]-cAMP, 60 min, IOV
Protocol: Cellular extrusion was determined using the inside-out vesicle (IOV) method where erythrocytes from healthy, human donors were sampled. […] The erythrocytes were separated from plasma by centrifugation and washed. […] The membrane vesiculation was initiated by adding […] buffer to the cell suspension. […] Experiments determined total ATP-dependent cellular efflux of cGMP or cAMP from IOVs.
pIC50: −log10 of the molar value.
value-kind: pIC50

>>> df
                                   molecule  value_kind  numeric_readout
0  CCCc1nc(C)c2c(=O)[nH]c(-c3cc(S(=O)(=O)N4CCN(CC)CC4)ccc3OCC)nn12 [Vardenafil]       pIC50             4.89
